Measured values drawn from PubChem BioAssay (NCI) for this set.

# Tested on: HS 578T breast
# ASSAY NOTES: NCI-60 one-dose screen, 48 h
# CONDITIONS USED: 10 µM
# Description: Growth inhibition of the HS 578T human tumor cell line is measured as a screen for anti-cancer activity. Cells are grown in 96 well plates and exposed to the test compound for 48 hours. Compounds are tested at a single concentration, which is 10^-5 M for most compounds. The reported endpoint is percent growth (GI% or GIPRCNT), where numbers from 0 - 100% represent growth inhibition, and numbers from -100% - 0 represent cell death. For example, a value of 40 represents 60% growth inhibition. […]
The panel holds about 83,000 compounds, 20% with a hit somewhere; the sample as a whole holds those more often. The source made the active and inactive calls. How the source made its calls: active means growth percent below 10; inactive means the rest.
Return exactly one item of Yes = active, No = inactive

CC(COC(=O)c1ccccc1)N1CC2CCC(C1)O2 (stereo not drawn) = No
FC(F)(F)c1ccc(/C=N/Nc2nnc3n2N=C(c2ccc(Cl)cc2)CS3)cc1 = Yes
CCCCCCCCCCCCCCCCCC1=NC(C)(C)CN1C(C)(C)CO = No
O=c1[nH]c2ccccc2n2cc3cccnc3c12 = No
CCN1CCN(Cc2ccc(NC(=O)c3nc4ccc5[nH]ncc5c4c4c3CCCC4)cc2C(F)(F)F)CC1 = No

Q: Kindly provide the recorded test outcome for the following compound: O=C(O)Cn1ccc2ccccc21
Result: No

Q: Entry COc1ccc(C2CC(c3cccc(Nc4ccnc5cc(Cl)ccc45)c3)=NN2c2ccccc2)cc1 (stereo not drawn) : call = ?
Result: No

Q: Please share the test call associated with Oc1[nH]c2ccc(Cl)cc2c1/C=c1/ccc2c(c1)N=C(c1ccc(F)cc1)N=2 .
Result: No

Q: State the result this test recorded for C=CCn1c(SCC(=O)Nc2ccc(/C(C)=N\O)cc2)nnc1-c1cc(-c2ccc(Cl)cc2)nc2ccccc12 .
Result: No

Q: Record request — test call for COc1ccc(C(=O)c2cc(C)c(OC)c(C)c2)cc1OC(=O)CCl
Result: No

Q: Lab log entry: CC(=O)Nc1nonc1-c1nc2ccccc2n1Cc1ccc(C(C)(C)C)cc1 — outcome as called in the assay?
Result: No

Q: Hi, sorry to bother you, what did the test record for O=C(/C=C/c1cn(-c2ccccc2)nc1-c1cccc(Nc2ccnc3cc(Cl)ccc23)c1)c1ccc2c(c1)OCO2 ?
Result: No
